Below: a set of entries, each annotated with reported fluorescence slope.
EXPERIMENTAL_SYSTEM: Voltage-gated potassium channel subunit beta-2 (Rattus norvegicus) (UniProt P62483)
Sequence (P62483 whole entry, looked up): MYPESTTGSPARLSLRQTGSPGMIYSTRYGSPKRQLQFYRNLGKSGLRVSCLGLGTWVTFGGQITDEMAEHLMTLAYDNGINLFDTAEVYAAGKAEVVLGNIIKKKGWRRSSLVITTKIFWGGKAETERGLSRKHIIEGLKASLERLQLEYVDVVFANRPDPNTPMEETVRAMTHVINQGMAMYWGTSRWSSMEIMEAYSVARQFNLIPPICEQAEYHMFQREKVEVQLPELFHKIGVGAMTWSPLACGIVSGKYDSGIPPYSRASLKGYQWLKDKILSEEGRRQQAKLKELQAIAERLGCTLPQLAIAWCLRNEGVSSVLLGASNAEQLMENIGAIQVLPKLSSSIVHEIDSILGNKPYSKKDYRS
METHOD_DESCRIPTION: inhibitors of rat Kvbeta2 reductase activity – biochemical, NADPH fluorescence, primary screen (AID 622);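 also: slope of raw intensity against log time taken from 70 to 1610 s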
STATED_CONDITIONS: recombinant KvBeta, 4-cyanobenzaldehyde reduction, at 10 µM, stronger effect = higher value
Form field (numeric): enter value without unit.

MOLECULE: COc1ccc(-c2noc(-c3cc(Cl)ccc3Cl)n2)cc1OC
MEASURE_NAME: fluorescence slope
OBSERVED_VALUE: -0.526

Lookup: Please look up its fluorescence slope: `Cc1nc(N2CCOCC2)[nH]c(=O)c1CCC(C)C`
Found: -0.4

Lookup: Please look up its fluorescence slope: `Cc1cccc(-n2ncc(C#N)c2N)c1`
Found: -0.482

Lookup: Please look up its fluorescence slope: COc1ccc(OC(C)C(=O)N2CC(C)OC(C)C2)cc1 (stereo unspecified)
Found: -0.566

Lookup: Please look up its fluorescence slope: `CCOC(=O)c1ccc(COC(=O)CCc2nc3ccccc3[nH]c2=O)o1`
Found: -0.546

Lookup: Please look up its fluorescence slope: `O=C(c1cccn2c(=O)c3cc(Cl)ccc3nc12)N1CCOCC1`
Found: -0.027

Lookup: Please look up its fluorescence slope: CC(Oc1ccccc1)C(=O)N1CCCc2ccccc21 (stereo unspecified)
Found: -0.239

Lookup: Please look up its fluorescence slope: `Cc1cc(C(=O)CSCc2nnc3n(CCC(C)C)c(=O)c4ccccc4n23)c(C)n1C`
Found: -0.558

Lookup: Please look up its fluorescence slope: `O=c1c2ccccc2sn1-c1ccc(S(=O)(=O)N2CCCCC2)cc1`
Found: -0.271

Lookup: Please look up its fluorescence slope: `O=C(Nc1cccc2c1CCCC2)C1CCN(c2nnnn2-c2ccccc2)CC1`
Found: -0.566

Lookup: Please look up its fluorescence slope: COCCOC(=O)C1=C(C)N=c2s/c(=C\c3cccs3)c(=O)n2C1c1cccs1 (stereo unspecified)
Found: -0.251
